Values from patent US20200325177A1

S. pneumoniae MIC data
Give the number; µg/mL is assumed, so skip it.

Here is how some molecules turned out for MIC.
CC1=C\[C@@H](O)CC(=O)Cc2nc(co2)C(=O)N2CCC[C@@H]2C(=O)O[C@H]([C@@H](C)COC(=O)Nc2ccnc(Br)c2)[C@H](C)/C=C/C(=O)NC\C=C\1 [SA0110081] | 32
CC1=C\[C@@H](O)CC(=O)Cc2nc(co2)C(=O)N2CCC[C@@H]2C(=O)O[C@H]([C@@H](C)COC(=O)Nc2cnccn2)[C@H](C)/C=C/C(=O)NC\C=C\1 [SA0110101] | 32
CC1=C\[C@@H](O)CC(=O)Cc2nc(co2)C(=O)N2CCC[C@@H]2C(=O)O[C@H]([C@@H](C)COC(=O)Nc2coc(C)n2)[C@H](C)/C=C/C(=O)NC\C=C\1 [SA0110095] | 16
CC1=C\[C@@H](O)CC(=O)Cc2nc(co2)C(=O)N2CCC[C@@H]2C(=O)O[C@H]([C@@H](C)COC(=O)Nc2csc(C)n2)[C@H](C)/C=C/C(=O)NC\C=C\1 [SA0110098] | 16

QUERY: # query: MIC of entry CC1=C\[C@@H](O)CC(=O)Cc2nc(co2)C(=O)N[C@H](C)C(=O)O[C@H](C(C)C)[C@H](C)/C=C/C(=O)NC\C=C\1 [madumycin I, Madumycin I, reference compound]
RESULT: 4

---

MIC values recorded for S. pneumoniae
Record the result as a number with its unit.

C[C@H]1COc2c(N3CCN(C)CC3)c(F)cc3c(=O)c(C(=O)O)cn1c23 [levofloxacin] | 0.5 µg/mL
CC1=C\[C@@H](O)CC(=O)Cc2nc(co2)C(=O)N2CCC[C@@H]2C(=O)O[C@H]([C@@H](C)CO)[C@H](C)/C=C/C(=O)NC\C=C\1 [SA0110026] | 64 µg/mL
CC(C)[C@H]1OC(=O)[C@H]2CCCN2C(=O)c2coc(n2)CC(=O)C[C@H](O)/C=C/C=C/CNC(=O)/C=C/[C@H]1C [SA0110239] | 64 µg/mL
CC1=C\[C@@H](O)CC(=O)Cc2nc(co2)C(=O)N2CCC[C@@H]2C(=O)O[C@H]([C@H](C)COC(=O)Nc2coc(C)n2)[C@H](C)/C=C/C(=O)NC\C=C\1 [SA0110210] | 64 µg/mL
CC1=C\[C@@H](O)C[C@@H](F)Cc2nc(co2)C(=O)N2CCC[C@@H]2C(=O)O[C@H](C(C)C)[C@H](C)/C=C/C(=O)NC\C=C\1 [flopristin, reference compound] | 2 µg/mL

Now take the following compound into account.
QUERY: Provide value of MIC for this record tested with S. pneumoniae: CC1=C\[C@@H](O)CC(=O)Cc2nc(co2)C(=O)N2CCC[C@@H]2C(=O)O[C@H]([C@@H](C)COC(=O)Nc2cccnc2)[C@H](C)/C=C/C(=O)NC\C=C\1 [SA0110067]
RESULT: 32 µg/mL

---

# Tested on: Gram-Negative Organisms
# Assay Details: microbe, parasite or virus in culture
# Type: cell-based
# Measurement Context: Escherichia coli, read-out: Minimal Inhibitory Concentration (MIC), E. coli ΔompC768; KanR insert
Measurement Kind: MIC

QUERY: Any idea what MIC was measured for CC1=C\[C@@H](O)CC(=O)Cc2nc(co2)C(=O)N2CCC[C@@H]2C(=O)O[C@H]([C@@H](C)CN2CCN(C)CC2)[C@H](C)/C=C/C(=O)NC\C=C\1 ?
RESULT: > 64 µg/mL

QUERY: Note, next up: CC1=C\[C@@H](O)CC(=O)Cc2nc(co2)C(=O)N2CCC[C@@H]2C(=O)O[C@H]([C@@H](C)CN2CCOCC2)[C@H](C)/C=C/C(=O)NC\C=C\1
RESULT: > 64 µg/mL

QUERY: Moving on to the next compound: CC1=C\[C@@H](O)CC(=O)Cc2nc(co2)C(=O)N2CCC[C@@H]2C(=O)O[C@H]([C@H](C)COC(=O)Nc2ccc(OC(F)(F)F)cc2)[C@H](C)/C=C/C(=O)NC\C=C\1
RESULT: > 64 µg/mL

QUERY: Try CC1=C\[C@@H](O)CC(=O)Cc2nc(co2)C(=O)N2CCC[C@@H]2C(=O)O[C@H]([C@H](C)CF)[C@H](C)/C=C/C(=O)NC\C=C\1 next.
RESULT: > 64 µg/mL

QUERY: Okay, and CC1=C\[C@@H](O)CC(=O)Cc2nc(co2)C(=O)N2CCC[C@@H]2C(=O)O[C@H]([C@H](C)COC(=O)Nc2ccc(C)cc2)[C@H](C)/C=C/C(=O)NC\C=C\1 ?
RESULT: > 64 µg/mL
